Here the recorded CC50 at 3 days is given for each entry.
Experiment: CytoTox-Glo cytotoxicity assay against MT4 cells
Assay type: cell-based
Experimental conditions: human, 50% cytotoxic concentration, MT-4 cells, read-out: CC50 (μg/mL) MT4
State just the number; it will be interpreted in µg/mL.

In [3]: df
Out[3]:
                           mol_smiles     result_type  observed_result
0  COc1ccc(OC)c2c1[nH]c1cc(O)c(C)cc12  CC50 at 3 days             15.2

Then this compound:
I'd like to know its CC50 at 3 days. The compound in question is `COC(=O)c1cc2c(cc1C)[nH]c1ccccc12`
17
